# ASSAY TARGET: Gonadotropin-releasing hormone receptor (Homo sapiens)
# Sequence (P30968 whole entry): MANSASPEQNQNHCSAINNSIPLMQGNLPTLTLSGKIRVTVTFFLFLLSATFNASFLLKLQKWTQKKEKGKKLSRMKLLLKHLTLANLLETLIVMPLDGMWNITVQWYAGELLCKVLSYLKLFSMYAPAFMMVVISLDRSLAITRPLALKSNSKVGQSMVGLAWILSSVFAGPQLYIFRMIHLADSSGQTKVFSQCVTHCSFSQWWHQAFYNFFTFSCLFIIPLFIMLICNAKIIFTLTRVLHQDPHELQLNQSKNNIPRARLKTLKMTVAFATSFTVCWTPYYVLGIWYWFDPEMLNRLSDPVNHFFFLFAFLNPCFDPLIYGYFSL
# ASSAY NOTES: Displacement of [125I]His5,D-Tyr6]GnRH from human cloned GnRH receptor transfected in COS7 cells
TEST READOUT: Ki (nM)
Answers are plain numbers, in nM.

O=c1c2c(n(Cc3c(F)cccc3F)c(=O)n1C[C@@H]1CCCCN1CCc1ccccn1)CCN(Cc1ccc(Cl)cc1)C2 : 2410
O=c1c2c(n(Cc3c(F)cccc3F)c(=O)n1C[C@H]1CCCCN1CCc1ccccn1)CCN(Cc1ccc(Cl)cc1)C2 : 30

Lab note: next compound to report on.
Query: What measured Ki goes with CCc1ccc(CN2CCc3c(c(=O)n(CCN(C)C)c(=O)n3Cc3c(F)cccc3F)C2)cc1 ?
Reply: 1400

----------
# ASSAY TARGET: Gonadotropin-releasing hormone receptor (Homo sapiens, UniProt P30968)
# Sequence (P30968 whole entry): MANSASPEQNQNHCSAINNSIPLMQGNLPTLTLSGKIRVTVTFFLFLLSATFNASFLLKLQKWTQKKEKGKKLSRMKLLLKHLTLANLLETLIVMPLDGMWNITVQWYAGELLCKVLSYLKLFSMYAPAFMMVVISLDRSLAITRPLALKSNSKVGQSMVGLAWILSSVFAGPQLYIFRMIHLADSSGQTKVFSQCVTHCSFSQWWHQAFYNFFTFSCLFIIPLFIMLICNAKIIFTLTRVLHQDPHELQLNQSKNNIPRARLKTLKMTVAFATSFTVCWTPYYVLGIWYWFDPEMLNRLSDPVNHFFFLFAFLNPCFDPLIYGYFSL
# ASSAY NOTES: Displacement of [125I]His5,D-Tyr6]GnRH from human cloned GnRH receptor transfected in COS7 cells
TEST READOUT: Ki (nM)
Numbers only, in nM.

These recorded examples may help you get a feel for the data.
CCSc1ccc(CN2CCc3c(c(=O)n(CCN(C)CCc4ccccn4)c(=O)n3Cc3c(F)cccc3F)C2)cc1 : 15
CN[C@@H](Cn1c(=O)c2c(n(Cc3c(F)cccc3F)c1=O)CCN(Cc1ccc(Cl)cc1)C2)c1ccccc1 : 45

Lab note: next compound to report on.
Query: What measured Ki goes with COc1cccc(-n2c(=O)c3c(n(Cc4c(F)cccc4F)c2=O)CN(Cc2ccncc2)CC3)c1 ?
Reply: 1580

----------
# ASSAY TARGET: Gonadotropin-releasing hormone receptor (Homo sapiens)
# ASSAY NOTES: Displacement of [125I]His5,D-Tyr6]GnRH from human cloned GnRH receptor transfected in COS7 cells
Kindly state pKi for each of the entries shown.
Give bare numbers, as −log10 of the molar value.

Go through the items and report each one's pKi.
1. Cc1ccc(CN2CCc3c(c(=O)n(CC4CCCN(Cc5ccccc5)C4)c(=O)n3Cc3c(F)cccc3F)C2)c(C)c1 (centres undefined)
2. Cc1ccc(CN2CCc3c(c(=O)n(CC4CCCNC4)c(=O)n3Cc3c(F)cccc3F)C2)c(C)c1 (centres undefined)
3. Cc1c(CN2CCc3c(c(=O)n(CCN(C)CCc4ccccn4)c(=O)n3Cc3ccccc3F)C2)sc2ccccc12
4. Cc1ccc(CN2CCc3c(c(=O)n(CC4CCCCN4Cc4ccccn4)c(=O)n3Cc3c(F)cccc3F)C2)c(C)c1 (centres undefined)

Reply:
1: 6.80; 2: 5.61; 3: 7.10; 4: 7.60
